Source of measurements: patent US20240270821A1

- targetEntity: human GcgR (Homo sapiens, UniProt P47871)
- Sequence (P47871 26-477): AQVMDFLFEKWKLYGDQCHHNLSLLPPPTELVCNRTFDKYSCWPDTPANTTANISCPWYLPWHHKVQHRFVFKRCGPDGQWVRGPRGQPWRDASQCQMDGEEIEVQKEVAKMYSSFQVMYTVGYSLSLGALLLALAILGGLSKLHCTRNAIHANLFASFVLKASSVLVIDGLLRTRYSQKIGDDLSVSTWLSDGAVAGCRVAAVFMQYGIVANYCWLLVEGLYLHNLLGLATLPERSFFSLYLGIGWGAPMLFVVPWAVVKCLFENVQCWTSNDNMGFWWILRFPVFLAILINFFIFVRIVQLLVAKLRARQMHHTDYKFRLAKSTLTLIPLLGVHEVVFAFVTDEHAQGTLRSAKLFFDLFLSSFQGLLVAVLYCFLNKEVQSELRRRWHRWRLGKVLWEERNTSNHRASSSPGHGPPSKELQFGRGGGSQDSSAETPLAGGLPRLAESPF
- protocolSummary: Functional cAMP activity in the presence of 1% HSA
- Type: cell-based
- appliedConditions: read-out: cAMP Rel EC50, hGcgR
pEC50: −log10 of the molar value. Starred links: 1 amine or outer side, 2 acyl side, 3 side chain; linkers in the order of their positions; H or OH if unused. Non-standard residues stand in square brackets, D forms with d. Groups on a side chain read outwards from the residue. No end group written: not given here. *: point of attachment. C20 diacid = O=C(O)CCCCCCCCCCCCCCCCCCC(=O)*; C18 diacid = O=C(O)CCCCCCCCCCCCCCCCC(=O)*; αMePhe(2-F) = C[C@](N)(Cc1ccccc1F)C(=O)O; γGlu = O=C(O)[C@H](CCC(=O)[*:2])N[*:1]; αMe4Pal = C[C@](N)(Cc1ccncc1)C(=O)O; αMeY = C[C@](N)(Cc1ccc(O)cc1)C(=O)O; αMeF = C[C@](N)(Cc1ccccc1)C(=O)O; 4Pal = N[C@@H](Cc1ccncc1)C(=O)O; αMeL = CC(C)C[C@](C)(N)C(=O)O; αMeS = C[C@](N)(CO)C(=O)O; Orn = NCCC[C@H](N)C(=O)O; Dab = NCC[C@H](N)C(=O)O; AEEA = NCCOCCOCC(=O)O; Aib = CC(C)(N)C(=O)O
Please note: label 1 applies when pEC50 is 6 or greater, and label 0 applies otherwise.

INSERT INTO assay_data (substance, assignedlabel) VALUES
  ('H-Y[Aib]QGT[αMeF]TSD[4Pal][αMeS]I[αMeL]LD[Orn]K([γGlu-γGlu-C18 diacid])AQ[αMe4Pal]EFI[dE][αMeY]LIEGGPSSGEPPPSGSE-NH2 [Example 1173]', 'label 1'),
  ('H-Y[Aib]QGT[αMePhe(2-F)]TSDFSILLDKQAQK([AEEA-AEEA-γGlu-C20 diacid])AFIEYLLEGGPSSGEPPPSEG-NH2 [Example 346]', 'label 0'),
  ('H-Y[Aib]QGTFTSDFS[Orn][αMeL]LDKK([AEEA-γGlu-C20 diacid])AQ[Aib]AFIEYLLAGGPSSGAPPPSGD-NH2 [Example 81]', 'label 0'),
  ('H-Y[Aib]QGT[αMePhe(2-F)]TSD[4Pal]SI[αMeL]LD[Orn]K([AEEA-γGlu-C18 diacid])AQ[αMe4Pal]EFI[dE][αMeY]LLEGGPSSGEPPPSGS-NH2 [Example 645]', 'label 1'),
  ('H-Y[Aib]QGT[αMePhe(2-F)]TSD[4Pal][αMeS]I[αMeL]LD[Orn]K([AEEA-γGlu-C18 diacid])AA[Aib]EFI[dE][αMeY]LIEGGPSSGAPPPSGQ-OH [Example 722]', 'label 1'),
  ('H-Y[Aib]QGT[αMePhe(2-F)]TSD[4Pal][αMeS]I[αMeL]LD[Orn]K([AEEA-γGlu-C18 diacid])AQ[αMe4Pal]EFI[dE][αMeY]LVEGGPSSGEPPPEGE-NH2 [Example 1159]', 'label 1'),
  ('Y[Aib]QGT[αMePhe(2-F)]TSDYSILLDKK([γGlu-γGlu-C18 diacid])AQ[Aib]AFIEYLEEGGPSSGAPPPSGE-NH2 [Example 435]', 'label 1'),
  ('H-Y[Aib]QGT[αMePhe(2-F)]TSD[4Pal]SILLDKK([γGlu-γGlu-C18 diacid])AQ[Aib]AFIE[αMeY]LEEGGPSSGAPPPSGTE-NH2 [Example 551]', 'label 1'),
  ('Y[Aib]QGT[αMePhe(2-F)]TSD[4Pal][αMeS]I[αMeL]LD[Orn]K([AEEA-γGlu-C18 diacid])AQ[αMe4Pal]EFI[dE][αMeY]LIEGGPPS[Aib][Orn]PPPSGSE-NH2 [Example 1198]', 'label 1'),
  ('H-Y[Aib]QGTFTSDFS[Dab][αMeL]LDKK([AEEA-γGlu-C18 diacid])AQ[Aib]AFIEYLLE[Aib]GPSSGAPPPSGS-NH2 [Example 133]', 'label 1'),
  ('H-Y[Aib]QGT[αMePhe(2-F)]TSD[4Pal][αMeS]I[αMeL]LD[Orn]K([γGlu-γGlu-C18 diacid])AQ[Aib][Orn]FI[dE][αMeY]LSEGGPSSGEPPPSGQEE-NH2 [Example 570]', 'label 1'),
  ('H-Y[Aib]QGT[αMePhe(2-F)]TSD[4Pal][αMeS]I[αMeL]LD[Orn]K([γGlu-γGlu-C18 diacid])AQ[αMe4Pal]EFI[dE][αMeY]LVEGGPSSGEPPPSGGGE-NH2 [Example 739]', 'label 1'),
  ('H-H[Aib]QGT[αMePhe(2-F)]TSDYSILLDKK([AEEA-γGlu-C20 diacid])AA[Aib]AFIEYLIEAGPSSGEPPPSEG-NH2 [Example 298]', 'label 0'),
  ('H-Y[Aib]QGTFTSD[4Pal]SQ[αMeL]LDKK([AEEA-γGlu-γGlu-C18 diacid])AQ[αMe4Pal]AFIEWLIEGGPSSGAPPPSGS-NH2 [Example 871]', 'label 0'),
  ('H-Y[Aib]QGTFTSD[4Pal]SQ[αMeL]LDKK([AEEA-γGlu-C18 diacid])AQ[αMe4Pal]AFIEYLIE[Aib]GPSSGAPPPEGS-NH2 [Example 851]', 'label 1'),
  ('H-Y[Aib]QGTFTSD[4Pal]SQ[αMeL]LD[Orn]K([Glu-γGlu-C18 diacid])AQ[αMe4Pal]AFIQ[αMeY]LIEGGPSSGAPPPSGSEEE-NH2 [Example 1077]', 'label 0'),
  ('H-Y[Aib]QGT[αMePhe(2-F)]TSD[4Pal][αMeS]I[αMeL]LD[Orn]K([AEEA-γGlu-C18 diacid])AQ[Aib][Orn]FI[dE]YLIEGGPSSGEPPPSGTEE-NH2 [Example 533]', 'label 1'),
  ('H-Y[Aib]QGT[αMePhe(2-F)]TSD[4Pal]SI[αMeL]LD[Orn]K([AEEA-γGlu-C18 diacid])AQ[αMe4Pal][Orn]FI[dE][αMeY]LIEGGPSSGDPPPEGE-NH2 [Example 727]', 'label 1'),
  ('H-Y[Aib]QGTFTSD[4Pal]SQ[αMeL]LD[Orn]K([γGlu-γGlu-C18 diacid])AQ[αMe4Pal]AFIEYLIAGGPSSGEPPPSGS-NH2 [Example 1007]', 'label 1');
